Target: the molecule itself
pKd: −log10 of the molar value.
recorded_metric: pKd

# input protein: Alpha-B-crystallin ACD ACD (protein) GLSEMRLEKDRFSVNLDVKHFSPEELKVKVLGDVIEVHGKHEERQDEHGFISREFHRKYRIPADVDPLTITSSLSSDGVLTVNGPRKQV ; wanted: its pKd
~5.70
